Values were extracted from ChEMBL document CHEMBL1132239.

# test_description: Dissociation constant of the Compound
# Type: physicochemical
List of Kd values.
assay_endpoint: Kd (nM)

O=C(Cc1cc[n+]([O-])cc1)N1CCN([C@@H]2c3ccc(Cl)cc3CCc3cc(Br)cnc32)CC1; 32
O=C(Cc1cc[n+]([O-])cc1)N1CCC(=C2c3ccc(Cl)cc3CCc3cc(Br)cnc32)CC1; 17.5
O=C(Cc1cc[n+]([O-])cc1)N1CCN([C@H]2c3ccc(Cl)cc3CCc3cc(Br)cnc32)CC1; 21
O=C(Cc1cc[n+]([O-])cc1)N1CCC(=C2c3ccc(Cl)cc3CCc3cccnc32)CC1; 240
O=C(Cc1cc[n+]([O-])cc1)N1CCC(=C2c3ncc(Br)cc3CCc3cc(Cl)cc(Br)c32)CC1; 5.1

----------
Below, each entry is listed alongside its reported IC50.
# study_target: Protein farnesyltransferase (Homo sapiens, UniProt P49354+P49356)
# test_description: Inhibition of Farnesyl protein transferase
# Format: protein-complex assay
assay_endpoint: IC50 (nM)

O=C(Cc1cc[n+]([O-])cc1)N1CCC(=C2c3ncc(Br)cc3CCc3cc(Cl)cc(Br)c32)CC1; 3.9
O=C(Cc1cc[n+]([O-])cc1)N1CCC(=C2c3ccc(Cl)cc3CCc3cc(Br)cnc32)CC1; 52
